TGI by entry:
tested on: HL-60(TB) leukemia; test: NCI tumour cell line growth inhibition, 48 h

>>> df
                                   compound  measurement
0  CCOc1ccc(OP2(=O)NC(=O)C=C(C)N2)cc1 (stereo not drawn)     > 100 µM

TGI measured on CS(=O)(=O)CCC1CCC(=O)O1 (stereo not drawn) = > 100 µM

Data point: O=c1c(Oc2ccc(F)cc2F)cc2cnc(NC3CCOCC3)nc2n1C1CC1 ; TGI = > 25 µM

###

tested on: NCI-H522 lung; assay: NCI tumour cell line growth inhibition, 48 h; in the data active = GI50 below about 0.43 µM; inactive = the rest
Output constraint: value belongs to active, inactive

// known answers, use as guide
molecule	systemName	groupLabel
CC[C@]12C=CCN3CC[C@@]4(c5ccc(OC)cc5N(C)[C@H]4[C@@](O)(C(=O)OC)[C@@H]1OC(=O)CCCN1CCN(CCCC(=O)O[C@@H]4[C@]5(CC)C=CCN6CC[C@@]7(c8ccc(OC)cc8N(C)[C@H]7[C@@]4(O)C(=O)OC)[C@@H]65)CC1)[C@@H]32	NCI-H522 lung	inactive
CC1=C(C(=O)Nc2ccc3[nH]ncc3c2)C(c2ccc(F)cc2)N=C(c2ccc(C(F)(F)F)nc2)N1 (centres undefined)	NCI-H522 lung	inactive
CN1CCN(C(=O)/C=C/c2ccc([N+](=O)[O-])o2)CC1	NCI-H522 lung	inactive
CN(c1ccccc1)c1c2ccccc2nc2[nH]c3ccccc3c12	NCI-H522 lung	inactive
COc1cc(NC(=O)COc2ccccc2)c(C(N)=O)cc1OC	NCI-H522 lung	active
O=C(/C=C(\[O-])c1ccccc1)CCCCCCC(=O)/C=C(\[O-])c1ccccc1.O=C(/C=C(\[O-])c1ccccc1)CCCCCCC(=O)/C=C(\[O-])c1ccccc1.O=C(/C=C(\[O-])c1ccccc1)CCCCCCC(=O)/C=C(\[O-])c1ccccc1.[Y+3].[Y+3]	NCI-H522 lung	inactive

Lookup: Returns: the outcome recorded for N#C[Se]CCN1C(=O)c2ccccc2C1=O in this assay.
Found: inactive

Lookup: Which outcome was entered for the molecule O=C1NC(=O)C2C3C=CC(C12)C1C2C(=O)NC(=O)C2C31 (centres undefined) in this test?
Found: inactive

Lookup: For C/C(=C\c1csc(C)n1)[C@@H]1C[C@@H]2O[C@]2(C)CCC[C@H](C)[C@H](O)[C@@H](C)C(=O)C(C)(C)[C@@H](O)CC(=O)N1 , what call appears in the results of this test?
Found: active

###

The reader will find reported TGI values listed item by item below.
system: SK-MEL-5 melanoma; test: NCI tumour cell line growth inhibition, 48 h

compound	TGI
C#CCN(C(=O)C(F)(F)F)C(/C=C\C(=O)OC)(C(=O)OCC)C(=O)OCC	> 100 µM

TGI for SK-MEL-5 melanoma with input O=C(O)CCC(NC(=O)c1ccc(Nc2nc3ccc(C(F)(F)F)cc3nc2C(=O)O)cc1)C(=O)O (stereo not drawn) equals > 100 µM

CC1(C)CC(=O)C(C(=O)Nc2cccs2)=C(O)C1 on SK-MEL-5 melanoma gives TGI = > 100 µM

Per the reported SK-MEL-5 melanoma data, CN1S(=O)(=O)N(C)P12(N=P(CP(=NP13(N(C)S(=O)(=O)N1C)N(C)S(=O)(=O)N3C)(c1ccccc1)c1ccccc1)(c1ccccc1)c1ccccc1)N(C)S(=O)(=O)N2C has TGI of > 100 µM

Here COc1cc(Nc2cc(Cl)cc(Cl)c2)nc(N)n1 was tested on SK-MEL-5 melanoma, and its TGI came to 29.7 µM

Hey, SK-MEL-5 melanoma data for CCCCCNC(=O)CCCCCCCCCCCNC(=O)CCCCCCCCCCN1C=CC(=CC=C2C=CC(=O)C=C2)C=C1 : TGI came out at > 100 µM

Bench note, SK-MEL-5 melanoma: CCOc1ccc(OP2(=O)NC(=O)C=C(C)N2)cc1 (stereo not drawn) , TGI reads > 100 µM

// provenance: PubChem BioAssay (NCI)
